# target-or-test-system: P2X purinoceptor 1 (Homo sapiens)
# Sequence (P51575 whole entry): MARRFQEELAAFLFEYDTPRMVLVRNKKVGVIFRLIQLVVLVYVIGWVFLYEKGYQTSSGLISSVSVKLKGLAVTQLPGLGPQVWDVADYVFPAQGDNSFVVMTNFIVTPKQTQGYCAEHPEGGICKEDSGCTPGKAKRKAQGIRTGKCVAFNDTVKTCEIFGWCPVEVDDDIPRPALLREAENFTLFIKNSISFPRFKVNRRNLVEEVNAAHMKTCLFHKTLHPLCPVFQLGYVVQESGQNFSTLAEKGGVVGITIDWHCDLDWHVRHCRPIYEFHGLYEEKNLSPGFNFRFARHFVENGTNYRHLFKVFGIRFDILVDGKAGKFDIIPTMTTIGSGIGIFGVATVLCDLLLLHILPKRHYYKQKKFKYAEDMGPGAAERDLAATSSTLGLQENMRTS
# measurement-protocol: Inhibitory concentration against human P2X purinoceptor 1 (hP2X1) expressed in CHO-K1 cells
measurement-kind: IC50 (µM)

| structure | quantity-unit | result-value |
| --- | --- | --- |
| O=C(N[C@H](Cc1cscn1)C(=O)N[C@@H](CC1CCCCC1)[C@@H](O)[C@@H](O)C1CC1)c1nc2ccccc2[nH]1 | µM | 3 |
